# PROTOCOL TEXT: Evaluation of stability (1): forced degradation test, impurities by LC
# STUDY CONDITIONS: 120° C., tightly closed, 24 hours
MEASURED PARAMETER: Change from Impurity Amt. before Storage (%), Condition 1
State the answer as a number, implicitly in %.

In the examples that follow, each entry is paired with its recorded Change from Impurity Amt. before Storage (%), Condition 1.
CCS(=O)(=O)O.O=C(O[C@H]1CN2CCC1CC2)N1CCc2ccccc2[C@H]1c1ccccc1: −0.2
O=C(O[C@H]1CN2CCC1CC2)N1CCc2ccccc2[C@H]1c1ccccc1 [Example 2]: 0.2
Br.O=C(O[C@H]1CN2CCC1CC2)N1CCc2ccccc2[C@H]1c1ccccc1: −0.2
Cc1ccc(S(=O)(=O)O)cc1.O=C(O[C@H]1CN2CCC1CC2)N1CCc2ccccc2[C@H]1c1ccccc1: −0.1
Cl.O=C(O[C@H]1CN2CCC1CC2)N1CCc2ccccc2[C@@H]1c1ccccc1 [Reference Example 2, Compound A hydrochloride, reference compound]: 0.2

Turning to the following compound.
Ask: Which value of Change from Impurity Amt. before Storage (%), Condition 1 has been reported for O=C(O[C@H]1CN2CCC1CC2)N1CCc2ccccc2[C@H]1c1ccccc1 [Example 1] in the records?
Result: 0.2

---

# ASSAY SYSTEM: muscarinic M3 receptors (Cavia porcellus, UniProt H0W1Z3)
# Construct: Smooth muscle cells were isolated from guinea pig bladders; from tissue; host or cells: smooth muscle cells freshly isolated from guinea pig bladder
# Sequence (H0W1Z3 1-590): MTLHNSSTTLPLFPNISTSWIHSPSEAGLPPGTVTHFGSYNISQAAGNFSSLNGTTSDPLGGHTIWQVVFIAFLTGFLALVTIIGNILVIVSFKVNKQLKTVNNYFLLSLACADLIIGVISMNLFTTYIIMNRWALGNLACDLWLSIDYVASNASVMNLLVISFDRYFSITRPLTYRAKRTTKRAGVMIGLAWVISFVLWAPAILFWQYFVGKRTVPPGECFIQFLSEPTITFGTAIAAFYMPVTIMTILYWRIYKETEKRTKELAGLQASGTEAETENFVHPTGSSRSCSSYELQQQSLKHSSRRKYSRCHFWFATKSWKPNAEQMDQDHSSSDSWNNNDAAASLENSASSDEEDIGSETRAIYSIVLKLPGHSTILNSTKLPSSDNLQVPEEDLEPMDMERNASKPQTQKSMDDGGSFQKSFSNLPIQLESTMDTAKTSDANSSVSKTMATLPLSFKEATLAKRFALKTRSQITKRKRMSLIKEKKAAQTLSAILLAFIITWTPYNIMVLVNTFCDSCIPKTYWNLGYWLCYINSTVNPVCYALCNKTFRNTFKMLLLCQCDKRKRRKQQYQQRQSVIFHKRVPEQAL
# PROTOCOL TEXT: Functional affinity estimate for muscarinic M3 receptors in bladders (carbachol-induced intracellular Ca2+ change in bladder smooth muscle cells)
# Type: cell-based, guinea pig
# STUDY CONDITIONS: Ki (nM), IC50 converted by Cheng-Prusoff equation based on EC50 of carbachol
Mark TRUE for Ki under 0.6 nM, FALSE if at or over.

Some entries whose results are on file:
O=C(O[C@H]1CN2CCC1CC2)N1CCc2ccccc2[C@H]1c1ccccc1.O=S(=O)(O)c1ccccc1 [Example 5, benzenesulfonate]: TRUE
O=C(O[C@H]1CN2CCC1CC2)N1CCc2ccccc2[C@H]1c1ccccc1 [Example 1]: FALSE
Cc1ccc(S(=O)(=O)O)cc1.O=C(O[C@H]1CN2CCC1CC2)N1CCc2ccccc2[C@H]1c1ccccc1 [Example 11, p-toluenesulfonate]: TRUE
CCS(=O)(=O)O.O=C(O[C@H]1CN2CCC1CC2)N1CCc2ccccc2[C@H]1c1ccccc1 [Example 12]: TRUE
Br.O=C(O[C@H]1CN2CCC1CC2)N1CCc2ccccc2[C@H]1c1ccccc1 [Example 7, hydrobromide]: FALSE

Note: attention shifts to another entry.
Ask: Identify whether the molecule O=C(O[C@H]1CN2CCC1CC2)N1CCc2ccccc2[C@H]1c1ccccc1 [Example 2] records Ki below 0.6 nM.
Result: FALSE

---

# PROTOCOL TEXT: Evaluation of hygroscopicity (dynamic steam adsorption, weight change)
# Format: physicochemical
# STUDY CONDITIONS: 25° C., within the range 5–95% relative humidity
MEASURED PARAMETER: Weight Change (%)

In the examples that follow, each entry is paired with its recorded Weight Change (%).
Cc1ccc(S(=O)(=O)O)cc1.O=C(O[C@H]1CN2CCC1CC2)N1CCc2ccccc2[C@H]1c1ccccc1 [Example 11]: <6%
CCS(=O)(=O)O.O=C(O[C@H]1CN2CCC1CC2)N1CCc2ccccc2[C@H]1c1ccccc1 [Example 12]: <5%
Br.O=C(O[C@H]1CN2CCC1CC2)N1CCc2ccccc2[C@H]1c1ccccc1 [Example 7]: <4%

Ask: Which value of Weight Change (%) has been reported for O=C(O[C@H]1CN2CCC1CC2)N1CCc2ccccc2[C@H]1c1ccccc1.O=S(=O)(O)c1ccccc1 [Example 5-1] in the records?
Result: <1%

---

# PROTOCOL TEXT: Evaluation of stability (1): forced degradation test, impurities by LC
# STUDY CONDITIONS: before storage
Below: a set of entries, each annotated with reported Impurities before Storage (%).
State the answer as a number, implicitly in %.

O=C(O[C@H]1CN2CCC1CC2)N1CCc2ccccc2[C@H]1c1ccccc1 [Example 2]: 0.0

Turning to the following compound.
Ask: Which value of Impurities before Storage (%) has been reported for Cc1ccc(S(=O)(=O)O)cc1.O=C(O[C@H]1CN2CCC1CC2)N1CCc2ccccc2[C@H]1c1ccccc1 in the records?
Result: 0.5

---

# PROTOCOL TEXT: Evaluation of stability (1): forced degradation test, impurities by LC
# STUDY CONDITIONS: 25° C., NUV (near ultraviolet ray) irradiated, tightly closed, 5 days
MEASURED PARAMETER: Change from Impurity Amt. before Storage (%), Condition 3
State the answer as a number, implicitly in %.

Cc1ccc(S(=O)(=O)O)cc1.O=C(O[C@H]1CN2CCC1CC2)N1CCc2ccccc2[C@H]1c1ccccc1: 0.0
Br.O=C(O[C@H]1CN2CCC1CC2)N1CCc2ccccc2[C@H]1c1ccccc1: 0.3
O=C(O[C@H]1CN2CCC1CC2)N1CCc2ccccc2[C@H]1c1ccccc1 [Example 1]: −0.3
Cl.O=C(O[C@H]1CN2CCC1CC2)N1CCc2ccccc2[C@@H]1c1ccccc1 [Reference Example 2, Compound A hydrochloride, reference compound]: 2.0
CCS(=O)(=O)O.O=C(O[C@H]1CN2CCC1CC2)N1CCc2ccccc2[C@H]1c1ccccc1: −0.1

Turning to the following compound.
Ask: Which value of Change from Impurity Amt. before Storage (%), Condition 3 has been reported for O=C(O[C@H]1CN2CCC1CC2)N1CCc2ccccc2[C@H]1c1ccccc1 [Example 2] in the records?
Result: 0.0

---

# PROTOCOL TEXT: Evaluation of stability (1): forced degradation test, impurities by LC
# STUDY CONDITIONS: 25° C., relative humidity 93%, open, 5 days
MEASURED PARAMETER: Change from Impurity Amt. before Storage (%), Condition 2
State the answer as a number, implicitly in %.

In the examples that follow, each entry is paired with its recorded Change from Impurity Amt. before Storage (%), Condition 2.
Cl.O=C(O[C@H]1CN2CCC1CC2)N1CCc2ccccc2[C@@H]1c1ccccc1 [Reference Example 2, Compound A hydrochloride, reference compound]: 3.8
CCS(=O)(=O)O.O=C(O[C@H]1CN2CCC1CC2)N1CCc2ccccc2[C@H]1c1ccccc1: −0.1
O=C(O[C@H]1CN2CCC1CC2)N1CCc2ccccc2[C@H]1c1ccccc1 [Example 1]: −0.1
Cc1ccc(S(=O)(=O)O)cc1.O=C(O[C@H]1CN2CCC1CC2)N1CCc2ccccc2[C@H]1c1ccccc1: 0.1
O=C(O[C@H]1CN2CCC1CC2)N1CCc2ccccc2[C@H]1c1ccccc1 [Example 2]: 0.1

Turning to the following molecule.
Ask: Which value of Change from Impurity Amt. before Storage (%), Condition 2 has been reported for Br.O=C(O[C@H]1CN2CCC1CC2)N1CCc2ccccc2[C@H]1c1ccccc1 in the records?
Result: 0.2

---

# ASSAY SYSTEM: muscarinic M3 receptors (Cavia porcellus)
# Construct: Smooth muscle cells were isolated from guinea pig bladders; from tissue; host or cells: smooth muscle cells freshly isolated from guinea pig bladder
# PROTOCOL TEXT: Functional affinity estimate for muscarinic M3 receptors in bladders (carbachol-induced intracellular Ca2+ change in bladder smooth muscle cells)
# Type: cell-based, guinea pig
# STUDY CONDITIONS: IC50 (ng/mL), inhibition of carbachol-induced Ca2+ increase, guinea pig bladder smooth muscle cells, Fura2
Below: a set of entries, each annotated with reported pIC50.
When answering, recall that pIC50 equals minus log10 of the concentration in mol/L, and write that number alone.

CCS(=O)(=O)O.O=C(O[C@H]1CN2CCC1CC2)N1CCc2ccccc2[C@H]1c1ccccc1: 8.40
Cc1ccc(S(=O)(=O)O)cc1.O=C(O[C@H]1CN2CCC1CC2)N1CCc2ccccc2[C@H]1c1ccccc1 [Example 11, p-toluenesulfonate]: 8.39
Br.O=C(O[C@H]1CN2CCC1CC2)N1CCc2ccccc2[C@H]1c1ccccc1 [Example 7, hydrobromide]: 8.39
O=C(O[C@H]1CN2CCC1CC2)N1CCc2ccccc2[C@H]1c1ccccc1 [Example 2]: 8.05
O=C(O[C@H]1CN2CCC1CC2)N1CCc2ccccc2[C@H]1c1ccccc1 [Example 1]: 8.18

Turning to the following molecule.
Ask: Which value of pIC50 has been reported for O=C(O[C@H]1CN2CCC1CC2)N1CCc2ccccc2[C@H]1c1ccccc1.O=S(=O)(O)c1ccccc1 [Example 5, benzenesulfonate] in the records?
Result: 8.46

---

Below: a set of entries, each annotated with reported Weight Change (%).
# PROTOCOL TEXT: Evaluation of hygroscopicity (dynamic steam adsorption, weight change)
# Type: physicochemical
# STUDY CONDITIONS: 25° C., within the range 5–95% relative humidity

In the examples that follow, each entry is paired with its recorded Weight Change (%).
CS(=O)(=O)O.O=C(O[C@H]1CN2CCC1CC2)N1CCc2ccccc2[C@H]1c1ccccc1 [Example 13]: <25%
O=C(O[C@H]1CN2CCC1CC2)N1CCc2ccccc2[C@H]1c1ccccc1.O=S(=O)(O)c1ccccc1 [Example 5]: <1%
O=C(O[C@H]1CN2CCC1CC2)N1CCc2ccccc2[C@H]1c1ccccc1 [Example 1]: <1%

Turning to the following compound.
Ask: Which value of Weight Change (%) has been reported for O=C(O[C@H]1CN2CCC1CC2)N1CCc2ccccc2[C@H]1c1ccccc1 [Example 2] in the records?
Result: <1%

These entries and their values trace back to patent US7176219B2.
